Kindly supply the reported shrunken log2 fold change values for the records listed here.
# Test system: Escherichia coli TOP10;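 also: peptides expressed intracellularly from a pBAD plasmid library in pooled LB shake-flask culture, induced with 0.3% L-arabinose, DNA abundance read by NGS, three biological replicates, DESeq2 with apeglm shrinkage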
# Test Protocol: shrunken log2 fold change of peptide-encoding DNA abundance (4.5 h post-induction vs induction); higher = less antimicrobial activity (less host growth inhibition)
# Conditions Used: time post-induction: 4.5 h; library: site-saturation at positions 5, 18, 19, 20

Problem: Entry RRIRTRPPRLPRPRPRPIEQPRP needs its shrunken log2 fold change filled in; supply it.
Result: -0.00141

Problem: // Input: RRIRFRPPRLPRPRPRPVEIPRP . Output its shrunken log2 fold change only.
Result: -0.391

Problem: Provide one value: measured shrunken log2 fold change of RRIRIRPPRLPRPRPRPYFKPRP
Result: -0.511

Problem: Identify measured shrunken log2 fold change associated with RRIRMRPPRLPRPRPRPRKEPRP
Result: 0.704

Problem: Specify reported shrunken log2 fold change for the sequence shown: RRIRKRPPRLPRPRPRPLHNPRP
Result: 0.0882

Problem: Assign shrunken log2 fold change to the following record: RRIRKRPPRLPRPRPRPQAGPRP
Result: -0.00963

Problem: Read the entry RRIRQRPPRLPRPRPRPDMDPRP and write its reported shrunken log2 fold change.
Result: -0.0896

Problem: Note shrunken log2 fold change for the sequence shown: RRIRVRPPRLPRPRPRPSEMPRP
Result: 0.0713

Problem: Annotate the sequence RRIRSRPPRLPRPRPRPTHEPRP with its measured shrunken log2 fold change.
Result: -0.0435

Problem: Write down shrunken log2 fold change measured for item RRIRHRPPRLPRPRPRPCLCPRP
Result: -0.268

Problem: Give a short answer stating reported shrunken log2 fold change for RRIRWRPPRLPRPRPRPQRWPRP .
Result: 0.308

Problem: Please indicate shrunken log2 fold change recorded for RRIRQRPPRLPRPRPRPLTMPRP
Result: 0.00947

Problem: Recall and state the measured shrunken log2 fold change for RRIRTRPPRLPRPRPRPEVNPRP .
Result: 0.131

Problem: For RRIRERPPRLPRPRPRPQMHPRP , write its shrunken log2 fold change.
Result: -0.634

Problem: Please list shrunken log2 fold change recorded for the sequence RRIRHRPPRLPRPRPRPPPFPRP
Result: 0.0505

Problem: Give recorded shrunken log2 fold change. RRIRCRPPRLPRPRPRPEIVPRP
Result: -0.221

Problem: Specify measured shrunken log2 fold change for RRIRMRPPRLPRPRPRPCNWPRP .
Result: -0.00208

Problem: Look up and state reported shrunken log2 fold change for RRIRQRPPRLPRPRPRPGNAPRP
Result: 0.322

Problem: Kindly indicate its recorded shrunken log2 fold change. Item: RRIRHRPPRLPRPRPRPVDFPRP
Result: 0.0522

Problem: Recall and state the measured shrunken log2 fold change for RRIRQRPPRLPRPRPRPYMVPRP .
Result: -0.176

Problem: Report shrunken log2 fold change for RRIRTRPPRLPRPRPRPNMMPRP
Result: -0.237

Problem: For the sequence RRIRVRPPRLPRPRPRPLTKPRP , give its measured shrunken log2 fold change value.
Result: 0.044

Problem: Output shrunken log2 fold change of RRIRGRPPRLPRPRPRPKRKPRP
Result: 0.835

Problem: For RRIRFRPPRLPRPRPRPNHSPRP , write its shrunken log2 fold change.
Result: -0.832

Problem: Dear colleague, please send me the reported shrunken log2 fold change for RRIRARPPRLPRPRPRPNRRPRP when you can.
Result: 0.366

Problem: # return recorded shrunken log2 fold change for entry RRIRWRPPRLPRPRPRPNDVPRP
Result: -0.0909

Problem: Identify measured shrunken log2 fold change corresponding to RRIRIRPPRLPRPRPRPALYPRP
Result: -0.312
